Target: T1, Growth and Differentiation Factor-11 (GDF11) (UniProt O95390)
T1 sequence (looked up): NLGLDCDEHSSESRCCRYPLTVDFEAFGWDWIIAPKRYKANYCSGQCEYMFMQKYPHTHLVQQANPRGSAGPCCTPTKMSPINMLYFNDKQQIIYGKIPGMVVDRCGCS
Test: cell-based or functional assay
assay metric: IC50 (µg/mL)
Lab book: enter the figure in µg/mL, no units written.

{"binder": "ActRIIB(23-131)-hFc (Fc fusion, not shown: a dimerising Fc or GST) EAETRECIYYNANWELERTNQSGLERCEGEQDKRLHCYASWRNSSGTIELVKKGCWLDDFNCYDRQECVATEENPQVYFCCCEGNFCNERFTHLPEAGGPEVTYEPPPT", "assay metric": "IC50", "reported value": 0.06}
{"binder": "ActRIIB(20-131)-hFc (Fc fusion, not shown: a dimerising Fc or GST) GRGEAETRECIYYNANWELERTNQSGLERCEGEQDKRLHCYASWRNSSGTIELVKKGCWLDDFNCYDRQECVATEENPQVYFCCCEGNFCNERFTHLPEAGGPEVTYEPPPT", "assay metric": "IC50", "reported value": 0.183}
{"binder": "ActRIIB(22-131)-hFc (Fc fusion, not shown: a dimerising Fc or GST) GEAETRECIYYNANWELERTNQSGLERCEGEQDKRLHCYASWRNSSGTIELVKKGCWLDDFNCYDRQECVATEENPQVYFCCCEGNFCNERFTHLPEAGGPEVTYEPPPT", "assay metric": "IC50", "reported value": 0.071}
{"binder": "ActRIIB(21-131)-hFc (Fc fusion, not shown: a dimerising Fc or GST) RGEAETRECIYYNANWELERTNQSGLERCEGEQDKRLHCYASWRNSSGTIELVKKGCWLDDFNCYDRQECVATEENPQVYFCCCEGNFCNERFTHLPEAGGPEVTYEPPPT", "assay metric": "IC50", "reported value": 0.121}

Next, consider the following binder.
stdin: What measured IC50 goes with ActRIIB(24-131)-hFc (Fc fusion, not shown: a dimerising Fc or GST) AETRECIYYNANWELERTNQSGLERCEGEQDKRLHCYASWRNSSGTIELVKKGCWLDDFNCYDRQECVATEENPQVYFCCCEGNFCNERFTHLPEAGGPEVTYEPPPT ?
stdout: 0.069
